Test system: U373 (glioblastoma-astrocytoma)
Test: CIMA assay, cell viability, U373
Conditions: Homo sapiens, U373 MG, read-out: Average cell viability, U373; 1 ug/mL
PROPERTY MEASURED: viability at 1 µg/mL (%)
Expressed in %, but write only the number.

Field: example entries. Status: answers known.
[[record]]
compound = "CC/C=C\\C/C=C\\C/C=C\\C/C=C\\CCC(=O)OC(COC(=O)CCCCCCC/C=C\\C/C=C\\C/C=C\\CC)COC1OC(CO)C(O)C(O)C1O (stereo not drawn) [Compound 14, MGDG C18:3/C16:4]"
endpoint_value = 109

[[record]]
compound = "CC/C=C\\C/C=C\\C/C=C\\C/C=C\\C/C=C\\CCCC(=O)OCC(O)COC1OC(CO)C(O)C(O)C1O (stereo not drawn) [Compound 13, lyso-MGDG C20:5]"
endpoint_value = 111


Requested read-out: viability at 1 µg/mL. Entry: CCCCC/C=C\C/C=C\CCCCCCCC(=O)O [Compound 20, linoleic acid]
87

###

Reported viability at 1 µg/mL values for a set of molecules
Tested on: U373 (glioblastoma-astrocytoma)
Assay: CIMA assay, cell viability, U373
Conditions: Homo sapiens, U373 MG, read-out: Average cell viability, U373; 1 ug/mL
Expressed in %, but write only the number.

Field: example entries. Status: answers known.
[[record]]
molecule = "CCCCCCCCCCCCCCCC(=O)OCC(COC1OC(CO)C(O)C(O)C1O)OC(=O)CCCCCCCCCCCCC (stereo not drawn) [Compound 16, MGDG C16:0/C14:0]"
endpoint_value = 108

[[record]]
molecule = "CC/C=C\\C/C=C\\C/C=C\\C/C=C\\C/C=C\\CCCC(=O)OCC(COC1OC(CO)C(O)C(O)C1O)OC(=O)CCC/C=C\\C/C=C\\C/C=C\\C/C=C\\C/C=C\\CC (stereo not drawn) [Compound 7, MGDG C20:5/C20:5]"
endpoint_value = 120


Requested read-out: viability at 1 µg/mL. Entry: CC/C=C\C/C=C\C/C=C\CCCCCCCC(=O)O [Compound 19, α-linolenic acid]
116

###

Reported Fold change in viability AVG values for a set of compounds
Tested on: SKOV3 (ovarian adenocarcinoma)
Experiment: CIMA assay, cell viability, SKOV3
Conditions: SKOV; 1 ug/mL
Could you respond with only the numeric value?

Field: example entries. Status: answers known.
[[record]]
compound = "CC/C=C\\C/C=C\\C/C=C\\C/C=C\\CCC(=O)OC(COC(=O)CCCCCCC/C=C\\C/C=C\\C/C=C\\CC)COC1OC(CO)C(O)C(O)C1O (stereo not drawn)"
property_measured = "Fold change in viability AVG"
endpoint_value = 1.17

[[record]]
compound = "CCCCCCCCCCCCCCCC(=O)OCC(COC1OC(CO)C(O)C(O)C1O)OC(=O)CCCCCCCCCCCCC (stereo not drawn)"
property_measured = "Fold change in viability AVG"
endpoint_value = 1.09

[[record]]
compound = "CC/C=C\\C/C=C\\C/C=C\\C/C=C\\C/C=C\\CCCC(=O)OCC(COC1OC(CO)C(O)C(O)C1O)OC(=O)CCC/C=C\\C/C=C\\C/C=C\\C/C=C\\C/C=C\\CC (stereo not drawn)"
property_measured = "Fold change in viability AVG"
endpoint_value = 1.36


Requested read-out: Fold change in viability AVG. Entry: CCCCC/C=C\C/C=C\CCCCCCCC(=O)O
0.91

Requested read-out: Fold change in viability AVG. Entry: CC/C=C\C/C=C\C/C=C\C/C=C\C/C=C\CCCC(=O)OCC(O)COC1OC(CO)C(O)C(O)C1O (stereo not drawn)
1.34

Requested read-out: Fold change in viability AVG. Entry: CC/C=C\C/C=C\C/C=C\CCCCCCCC(=O)O
1.26

###

Test system: SKOV3 (ovarian adenocarcinoma)
Assay: CIMA assay, cell viability, SKOV3
Conditions: SKOV; 50 ug/mL
Reported Fold change in viability AVG values for a set of molecules
Could you respond with only the numeric value?

Field: example entries. Status: answers known.
[[record]]
molecule = "CC/C=C\\C/C=C\\C/C=C\\CCCCCCCC(=O)O [Compound 19, α-linolenic acid]"
endpoint_value = 1.09

[[record]]
molecule = "CC/C=C\\C/C=C\\C/C=C\\C/C=C\\CCC(=O)OC(COC(=O)CCCCCCC/C=C\\C/C=C\\C/C=C\\CC)COC1OC(CO)C(O)C(O)C1O (stereo not drawn) [Compound 14, MGDG C18:3/C16:4]"
endpoint_value = 0.89


Please turn your attention to the following entry.
Requested read-out: Fold change in viability AVG. Entry: CCCCCCCCCCCCCCCC(=O)OCC(O)CO (stereo not drawn) [77-38-41-1 B, MAG (C16:0)]
0.56

###

Assay: in vitro
Conditions: human, Average cell viability
PROPERTY MEASURED: viability at 72 h, 10 ug/mL (%)
Expressed in %, but write only the number.

[[record]]
cpd_smiles = "CCCCC/C=C\\C/C=C\\CCCCCCCC(=O)O"
endpoint_value = 97


Requested read-out: viability at 72 h, 10 ug/mL. Entry: CC/C=C\C/C=C\C/C=C\CCCCCCCC(=O)O
105

###

Test system: A549 (lung carcinoma)
Assay: CIMA assay (colorimetric indicator of metabolic activity), cell viability, A549
Conditions: A549, 1 ug/mL; listed as 174-13-14-3; unit assumed
PROPERTY MEASURED: Average cell viability (%)
Expressed in %, but write only the number.

Requested read-out: Average cell viability. Entry: CC/C=C\C/C=C\C/C=C\C/C=C\C/C=C\CCCC(=O)OCC(COC1OC(CO)C(O)C(O)C1O)OC(=O)CCCCCCCCCCCCCCC (stereo not shown) [Compound 2, MGDG C20:5/C16:0]
96

###

Test system: CCD1079SK (fibroblast, noncancerous but proliferating)
Experiment: CIMA assay, cell viability, CCD1079SK
Settings: CCD, 100 ug/mL; listed as 174-13-14-3
PROPERTY MEASURED: Average cell viability
// unit must come after the numeric part

// map CC/C=C\C/C=C\C/C=C\C/C=C\C/C=C\CCCC(=O)OCC(COC1OC(CO)C(O)C(O)C1O)OC(=O)CCCCCCCCCCCCCCC (stereo not shown) [Compound 2, MGDG C20:5/C16:0] to recorded Average cell viability (system: CCD1079SK (fibroblast, noncancerous but proliferating))
14%

###

System: U373 (glioblastoma-astrocytoma)
Assay: CIMA assay, cell viability, U373
Settings: U373, 50 ug/mL; listed as 169-14-15-4
PROPERTY MEASURED: Average cell viability (%)
Expressed in %, but write only the number.

Requested read-out: Average cell viability. Entry: CC/C=C\C/C=C\C/C=C\C/C=C\C/C=C\CCCC(=O)OCC(COC1OC(CO)C(O)C(O)C1O)OC(=O)CCCCCCCCCCCCCCC (stereo not shown) [Compound 2, MGDG C20:5/C16:0]
30

###

Test system: SKOV3 (ovarian adenocarcinoma)
PROPERTY MEASURED: viability (AVG) (%)
Expressed in %, but write only the number.

// map CCCCCCCCCCCCOS(=O)(=O)[O-].[Na+] [SDS, reference compound] to recorded viability (AVG) (system: SKOV3 (ovarian adenocarcinoma))
78.9

###

Test system: A549 (lung carcinoma)
Experiment: CIMA assay (colorimetric indicator of metabolic activity), cell viability, A549
Details: A549, sample at 10 ug/mL
The threshold is inclusive: A549 AVG of exactly 1 counts as 1 (yes); values below receive 0 (no).

[[record]]
molecule = "CC/C=C\\C/C=C\\C/C=C\\C/C=C\\C/C=C\\CCCC(=O)OCC(COC1OC(CO)C(O)C(O)C1O)OC(=O)CCC/C=C\\C/C=C\\C/C=C\\C/C=C\\C/C=C\\CC (centres unmarked) [Compound 7, MGDG C20:5/C20:5]"
target_or_system = "A549 (lung carcinoma)"
cat = "0 (no)"

[[record]]
molecule = "CC/C=C\\C/C=C\\C/C=C\\CCCCCCCC(=O)O [Compound 19, α-linolenic acid]"
target_or_system = "A549 (lung carcinoma)"
cat = "1 (yes)"

[[record]]
molecule = "CC/C=C\\C/C=C\\C/C=C\\C/C=C\\CCC(=O)OC(COC(=O)CCCCCCC/C=C\\C/C=C\\C/C=C\\CC)COC1OC(CO)C(O)C(O)C1O (centres unmarked) [Compound 14, MGDG C18:3/C16:4]"
target_or_system = "A549 (lung carcinoma)"
cat = "1 (yes)"

[[record]]
molecule = "CC/C=C\\C/C=C\\C/C=C\\C/C=C\\C/C=C\\CCCC(=O)OCC(O)COC1OC(CO)C(O)C(O)C1O (centres unmarked) [Compound 13, lyso-MGDG C20:5]"
target_or_system = "A549 (lung carcinoma)"
cat = "0 (no)"


Now examine the next entry.
Answer whether A549 AVG of CCCCC/C=C\C/C=C\CCCCCCCC(=O)O [Compound 20, linoleic acid] is greater than or equal to 1.
1 (yes)
